Measured GFP response, % of DMSO, listed per entry.
Test: modulators of CIT2-GFP expression in yeast, confirmation, S. cerevisiae, GFP fusion, cherry picks, mother/daughter gates (AID 2274)
Conditions: S. cerevisiae CIT2-GFP strain, flow cytometry, 3 h; measured here: daughter cell gate; at 10 µM; stronger effect = higher value
Give a bare numeral; the unit % is implied.

Completed entries (count: 5):
>  <STRUCTURE SMILES STRING>
O=C1C=CC(=O)N1c1ccc(N2CCCCC2)cc1

>  <GFP response, % of DMSO, %>
97.2

$$$$
>  <STRUCTURE SMILES STRING>
O=C(Oc1ccnc2cc(Cl)ccc12)N1CCCCCC1

>  <GFP response, % of DMSO, %>
93.2

$$$$
>  <STRUCTURE SMILES STRING>
CC(=O)Nc1ccc(Nc2cc(C)nc3c(-c4ccc(Cl)cc4)c(C)nn23)cc1

>  <GFP response, % of DMSO, %>
105

$$$$
>  <STRUCTURE SMILES STRING>
O=c1c2c(-c3ccc(Cl)cc3)csc2ncn1/N=C/c1cccc([N+](=O)[O-])c1O

>  <GFP response, % of DMSO, %>
98.3

$$$$
>  <STRUCTURE SMILES STRING>
O=C(Nc1c2ccccc2nc2ccccc12)C(Cl)(Cl)Cl

>  <GFP response, % of DMSO, %>
77.8

$$$$

Fill in reported GFP response, % of DMSO for this entry: CC(C)c1nnc(-c2ccc(Cl)cc2)c(N(C)C)n1 101

Fill in reported GFP response, % of DMSO for this entry: O=[N+]([O-])c1ccc(Sc2ccc(Cl)c(Cl)c2)nc1 99.3

----------
Test: modulators of CIT2-GFP expression in yeast, confirmation, S. cerevisiae, GFP fusion, cherry picks, mother/daughter gates (AID 2274)
Conditions: S. cerevisiae CIT2-GFP strain, flow cytometry, 3 h; measured here: daughter cell gate; at 10 µM; stronger effect = higher value
Measured GFP response, % of DMSO, listed per entry.

Completed entries (count: 2):
>  <STRUCTURE SMILES STRING>
CCCN1CCN(C(=O)c2oc3ccccc3c2NC(=O)COc2ccc(OC)cc2)CC1

>  <GFP response, % of DMSO>
106%

$$$$
>  <STRUCTURE SMILES STRING>
COc1ccc(N2CCN(c3nc4c(C)cccn4c(=O)c3/C=C(\C#N)C(N)=O)CC2)cc1

>  <GFP response, % of DMSO>
105%

$$$$

Fill in reported GFP response, % of DMSO for this entry: COc1ccc(-c2ccc(CCC(=O)O)o2)cc1 97.2%

----------
Test: inhibitors of fungal efflux pumps CDR1, CDR2, MDR1, pilot screen, validation compound set, multiplex, phenotypic (AID 588506);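 further: Nile Red retained in cells so higher fluorescence means more efflux inhibition; 0 = negative control wells and 1 = enniatin B 25 µM full block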
Details: S. cerevisiae pump-expressing triplex, Nile Red efflux flow cytometry; at 10 µM; the pumps come from Candida albicans
The source made the active and inactive calls.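 The calls were made as follows: active = efflux inhibition above 0.42, the validation set average plus 4 SD; inconclusive = no clear call, values can overlap the other calls; inactive = the rest.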
Respond using exactly one of the listed classes: active, inactive

>  <COMPOUND>
CCOC(=O)c1ccc(N2C(=O)C(CC(N)=O)N(CCc3ccc(OC)c(OC)c3)C2=S)cc1 (stereo unspecified)

>  <CATEGORY>
active

$$$$
>  <COMPOUND>
C[C@H](NC(=O)Nc1ccccc1F)C(=O)O

>  <CATEGORY>
inactive

$$$$
>  <COMPOUND>
O=c1[nH]c(=O)n([C@H]2C[C@H](O)[C@@H](CO)O2)cc1F

>  <CATEGORY>
inactive

$$$$
>  <COMPOUND>
COc1cc2c(cc1O)CC[C@@H]1[C@@H]2CC[C@]2(C)[C@@H](O)CC[C@@H]12

>  <CATEGORY>
inactive

$$$$
>  <COMPOUND>
CC(C)NNC(=O)c1ccncc1

>  <CATEGORY>
inactive

$$$$

GET /call?item= Cc1ccc2[nH]c3c(c2c1)CN(C)CC3 returns the recorded outcome of this test. inactive

GET /call?item= c1cc2c(cc1C1CCCCC1)c1c3n2CCN=C3CCC1 returns the recorded outcome of this test. inactive

GET /call?item= Cc1nc2ccccc2c(=O)n1N returns the recorded outcome of this test. inactive

GET /call?item= O=C(Nc1ccccc1)c1ccccc1CCc1ccccc1 returns the recorded outcome of this test. inactive

GET /call?item= CCCOc1ccc(-c2cc(C(=O)NCC3CCCO3)c3ccccc3n2)cc1 (stereo unspecified) returns the recorded outcome of this test. inactive

GET /call?item= CC(C)CCOCC(=O)Nc1cccc(C(=O)O)c1 returns the recorded outcome of this test. inactive

GET /call?item= N#Cc1c2c(c(-c3ccccc3)[nH]c1=O)CCCC2 returns the recorded outcome of this test. inactive

GET /call?item= O=C(C1CCCCC1)N1CC(=O)N2CCc3ccccc3C2C1 (stereo unspecified) returns the recorded outcome of this test. inactive

GET /call?item= Cc1cc(C)c2c(CCl)cc(=O)oc2c1 returns the recorded outcome of this test. inactive

GET /call?item= O=C(O)c1ccccc1O returns the recorded outcome of this test. active

GET /call?item= O=C(c1ccc([N+](=O)[O-])cc1)N1CCSC1c1ccccc1Cl (stereo unspecified) returns the recorded outcome of this test. inactive
